Test system: CASK;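 note: KINOMEscan kinase panel screen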
condition-summary: concentration: 1 μM, replicates: in singlicate; n = 1
compounds and their reported %Inh
Quick note: give the figure in %, leave out the unit.

compound | unit-spec | measurement
O=C1NC(=O)C(c2ccccc2)=C1Nc1cccc(O)c1 [SB-390534] | % | 1
COC(=O)c1c(-c2ccccc2)c2cc(C)ccc2c(=O)n1Cc1ccccc1 | % | 0
O=c1cc(N2CCOCC2)nc2n(Cc3ccc(F)c(Cl)c3)ccn12 [GSK2297099] | % | 2
COc1cc2ncn(-c3cc(OCc4ccc(S(C)(=O)=O)cc4)c(C(N)=O)s3)c2cc1OC [GW869979] | % | 37

What measured %Inh goes with Cc1cccc(-c2nc(Nc3ccc4c(cnn4C)c3)c3ccccc3n2)n1 [GW876731] ? 0

Please look up its %Inh: COc1ccc(-c2coc3ccc(-c4nnc(SCc5cccc(C#N)c5)o4)cc23)cc1 8

Would you kindly share the measured %Inh for CN1C(=O)C(Nc2ccccc2)=C(c2ccccc2)C1=O [SB-300079] ? 0

Item under review: COc1cccc(-n2cnc3c(N)ncnc32)c1 [SKF-97416] . Reported %Inh? 20

Report %Inh for O=C(Nc1ccc2c(c1)OCO2)NC1CCN(c2ccnc(NCc3ccc(F)cc3)n2)CC1 [GSK1379859] please. 0

Endpoint output: %Inh of COc1cc2nccc(Nc3ccc(OCc4ccc(NC(C)=O)cc4)cc3)c2cc1OC.Cl [GW440135] . Value? 0
